# Experimental Target: UniProt P11511
# Sequence (P11511 whole entry): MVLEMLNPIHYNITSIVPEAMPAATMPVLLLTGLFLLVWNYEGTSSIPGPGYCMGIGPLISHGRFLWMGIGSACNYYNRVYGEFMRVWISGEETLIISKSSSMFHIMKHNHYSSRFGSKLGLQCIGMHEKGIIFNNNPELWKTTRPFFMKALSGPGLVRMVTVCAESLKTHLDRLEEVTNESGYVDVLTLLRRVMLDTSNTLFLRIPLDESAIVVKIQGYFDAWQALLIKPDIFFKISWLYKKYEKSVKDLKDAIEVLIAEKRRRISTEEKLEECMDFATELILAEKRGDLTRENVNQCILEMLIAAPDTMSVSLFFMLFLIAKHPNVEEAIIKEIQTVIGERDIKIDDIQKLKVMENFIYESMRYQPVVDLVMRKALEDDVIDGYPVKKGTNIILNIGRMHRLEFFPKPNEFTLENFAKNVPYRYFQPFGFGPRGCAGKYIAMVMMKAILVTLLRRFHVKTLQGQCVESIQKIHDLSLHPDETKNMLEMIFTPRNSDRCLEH
Readout Type: Ki (nM)
Return type: number; implicit unit nM.

Missing value: Ki, UniProt P11511, entry C[C@]12C=CC(=O)C=C1C=C(c1ccccc1)[C@@H]1[C@@H]2CC[C@]2(C)C(=O)CC[C@@H]12 . Fill in?
2220

Missing value: Ki, UniProt P11511, entry C[C@]12C=CC(=O)C=C1C=C(CCc1ccccc1)[C@@H]1[C@@H]2CC[C@]2(C)C(=O)CC[C@@H]12 . Fill in?
172

---

Data export: pKi values recorded with Aromatase (Homo sapiens, UniProt P11511).
Quick note: pKi means taking -log10 of the concentration in moles per liter.

So what does the record say about pKi for CSC1=C2CC[C@@H]3[C@H](CC[C@]4(C)C(=O)CC[C@@H]34)[C@@]2(C)CCC1=O ?
7.44

So what does the record say about pKi for C[C@]12CCC(=O)C(OCc3ccccc3)=C1CC[C@@H]1[C@@H]2CC[C@]2(C)C(=O)CC[C@@H]12 ?
7.42

So what does the record say about pKi for C#C[C@@H](OC(C)=O)[C@@]12CCC(=O)C=C1C(=O)C[C@@H]1[C@@H]2CC[C@]2(C)C(=O)CC[C@@H]12 ?
4.12

So what does the record say about pKi for C[C@]12C=CC(=O)C=C1C[C@@H](CCc1ccccc1)[C@@H]1[C@@H]2CC[C@]2(C)C(=O)CC[C@@H]12 ?
8.15

So what does the record say about pKi for C[C@]12CC[C@H]3[C@@H]([C@H]4[C@@H](C5=CCCC[C@@]53C)C4(F)F)[C@@H]1CC[C@@H]2O ?
8.30

So what does the record say about pKi for C[C@]12CC[C@H]3[C@@H]([C@H](Cc4ccccc4)CC4=CC(=O)CC[C@@]43C)[C@@H]1CC[C@@H]2O ?
7.44

So what does the record say about pKi for C[C@]12CCC(=O)C=C1C[C@@H](CCc1ccccc1)[C@@H]1[C@@H]2CC[C@]2(C)C(=O)CC[C@@H]12 ?
7.88

So what does the record say about pKi for C[C@]12CC[C@H]3[C@@H](CCC4=CCCC[C@@]43C(F)F)[C@@H]1CCC2=O ?
6.77

So what does the record say about pKi for CCCSC1=C2CC[C@@H]3[C@H](CC[C@]4(C)C(=O)CC[C@@H]34)[C@@]2(C)CCC1=O ?
7.44

So what does the record say about pKi for C[C@]12CCCC=C1[C@@H]1[C@H]([C@@H]3[C@@H]2CC[C@]2(C)C(=O)CC[C@@H]32)C1(F)F ?
8.30

So what does the record say about pKi for C[C@]12C=CC(=O)C=C1C[C@@H](Cc1ccccc1)[C@@H]1[C@@H]2CC[C@]2(C)C(=O)CC[C@@H]12 ?
8.15

So what does the record say about pKi for CC(=O)SC1=C2CC[C@@H]3[C@H](CC[C@]4(C)C(=O)CC[C@@H]34)[C@@]2(C)CCC1=O ?
7.44

So what does the record say about pKi for C#C[C@H](OC(C)=O)[C@]12CCC(=O)C=C1C(=O)C[C@@H]1[C@@H]2CC[C@]2(C)C(=O)CC[C@@H]12 ?
4.17

So what does the record say about pKi for C[C@]12CCCC=C1CC[C@@H]1[C@@H]2CC[C@]2(C)C(=O)[C@@H](Br)C[C@@H]12 ?
6.34

So what does the record say about pKi for C[C@]12CCC(=O)C=C1C[C@H](CCc1ccccc1)[C@@H]1[C@@H]2CC[C@]2(C)C(=O)CC[C@@H]12 ?
7.44

So what does the record say about pKi for C[C@]12C=CC(=O)C=C1C[C@@H](CCc1ccc([N+](=O)[O-])cc1)[C@@H]1[C@@H]2CC[C@]2(C)C(=O)CC[C@@H]12 ?
8.15

So what does the record say about pKi for C[C@]12CC[C@H]3[C@@H](CCC4=CCCC[C@@]43CO)[C@@H]1CC[C@@H]2O ?
6.77

So what does the record say about pKi for C[C@]12CCC(=O)C=C1C[C@@H](Cc1ccccc1)[C@@H]1[C@@H]2CC[C@]2(C)C(=O)CC[C@@H]12 ?
7.72

So what does the record say about pKi for C[C@]12CCC(=O)C=C1C[C@H](Cc1ccccc1)[C@@H]1[C@@H]2CC[C@]2(C)C(=O)CC[C@@H]12 ?
7.44

So what does the record say about pKi for C[C@]12CCC(=O)C=C1C=C(CCc1ccccc1)[C@@H]1[C@@H]2CC[C@]2(C)C(=O)CC[C@@H]12 ?
7.22

So what does the record say about pKi for C[C@]12C=CC(=O)C=C1C[C@@H](CCCc1ccc([N+](=O)[O-])cc1)[C@@H]1[C@@H]2CC[C@]2(C)C(=O)CC[C@@H]12 ?
8.15

---

# Experimental Target: Aromatase (Homo sapiens, UniProt P11511)
# Assay Name: Inhibition of aromatase (unknown origin)
# Design: concentration or dose not given beside the values
# Measurement Setup: human
Readout Type: inhibition (INH) (%)
Return type: number; implicit unit %.

So what does the record say about inhibition (INH) for CC(=O)[C@@]1(C)CC[C@H]2[C@@H](CCC3=C(O)C(=O)CC[C@@]32C)C1CC#N (some centres undefined) ?
46.5

So what does the record say about inhibition (INH) for CC(=O)O[C@@H]1[C@@H]2CC(=O)C[C@@H]3CC[C@@H]4[C@H](CC[C@]5(C)C(=O)CC[C@@H]45)[C@@]312 ?
40

So what does the record say about inhibition (INH) for C[C@]12CC[C@H]3[C@@H](CC[C@H]4C[C@@]5(O)C[C@H]6[C@H](O5)[C@]436)[C@@H]1CCC2=O ?
40

So what does the record say about inhibition (INH) for C[C@]12CC[C@H]3[C@@H](CC[C@H]4CC(=O)C[C@H]5[C@@H](O)[C@]435)[C@@H]1CCC2=O ?
40

---

# Experimental Target: UniProtKB P11511
# Assay Name: Irreversible inhibition of human aromatase extracted from placental microsomes
# Measurement Setup: read-out: Ki(app)
Readout Type: Ki (nM)
Return type: number; implicit unit nM.

So what does the record say about Ki for C[C@]12CCC(=O)C(O)=C1CC[C@@H]1[C@@H]2CC[C@]2(C)C(=O)CC[C@@H]12 [FORMESTANE] ?
43

---

Exercise: state measured pIC50 for each of the compounds provided.
# Experimental Target: Aromatase (Homo sapiens)
# Assay Name: Inhibition of human aromatase extracted from placental microsomes using [1beta-3H]androstenedione as substrate after 30 mins
Quick note: pIC50 means taking -log10 of the concentration in moles per liter.

So what does the record say about pIC50 for C[C@]12CC[C@H]3[C@@H](Cc4noc5c4[C@]3(C)CC[C@@H]5O)[C@@H]1CC[C@@H]2O ?
3.92

So what does the record say about pIC50 for C[C@]12CC[C@H]3[C@@H](Cc4noc5c4[C@]3(C)CCC5=O)[C@@H]1CC[C@@H]2O ?
4.73

So what does the record say about pIC50 for C[C@]12CCC(=O)c3onc(c31)C[C@@H]1[C@@H]2CC[C@]2(C)C(=O)CC[C@@H]12 ?
5.72

---

# Experimental Target: Aromatase (Homo sapiens, UniProt P11511)
# Assay Name: Competitive inhibition of aromatase (unknown origin)
Readout Type: pKi
Quick note: pKi means taking -log10 of the concentration in moles per liter.

So what does the record say about pKi for C[C@]12CC[C@H]3[C@@H](CC=C4[C@H]5CSC[C@]43CCC5=O)[C@@H]1CCC2=O ?
5.00

So what does the record say about pKi for C[C@]12CC[C@H]3[C@@H](CCC4=CC(=O)[C@H]5CC[C@]43C5)[C@@H]1CCC2=O ?
5.00

So what does the record say about pKi for C[C@]12CCC3C(C[C@H]4COC[C@@]35CCC(=O)C=C45)C1CCC2=O (stereo partly drawn) ?
5.00
